- measurement_notes: qHTS screen for small molecules that inhibit ELG1-dependent DNA repair in human embryonic kidney (HEK293T) cells expressing luciferase-tagged ELG1; note: nearly all actives have a fitted effect of over 55% in size
- experimental_setup: HEK293T ELG1-luciferase reporter, luminescence, 16 h, DNA damage induced by 5-fluorouridine; series mostly up to 46.1 µM
Screen size: about 330,000 compounds; about 7,700 (2.3%) were called active. Roughly 26% stayed inconclusive and do not appear here. Calls come from the whole dose curve; as a rule, active = well fitted inhibition curve with a large enough effect; inconclusive = small, poorly fitted or top-dose-only effect, or effect the other way; inactive = flat fitted curve, though single readings scatter. Shown is part of a subset that was picked to be rich in actives.
Your reply should match one of these outcome classes. 1 (active), 0 (inactive)

Answered examples (5):
molecule | label_class
CCCCCn1c(=O)c(C(=O)NCc2ccccc2)c(O)c2ccccc21 | 0
O=c1[nH]c(O)c(C=Nc2cc(F)cc(F)c2)c(=O)[nH]1 | 0
Oc1cc2c(cc1CN1CCN(c3ccccc3)CC1)OCO2 | 0
COC(=O)C1=C(c2ccc(Cl)c(C(F)(F)F)c2)C[C@@H]2CC[C@H]1N2C(=O)NC1CC1 | 0
Cc1nc2ccccc2c(=O)n1-c1ccc(Cl)cc1Cl | 0

Recorded test call requested for Cc1ccccc1NC(=O)COC(=O)c1cc(C)n(C2CC2)c1C
0

Recorded test call requested for O=C(NC(=S)N1C[C@H]2C[C@H](C1)c1cccc(=O)n1C2)c1ccc(F)cc1
0

Recorded test call requested for CCN1C(=O)C(=Cc2c(C)n(CC(=O)NCC3CCCO3)c3ccccc23)C(=O)N(CC)C1=S (stereo unspecified)
0

Recorded test call requested for CC(=O)Nc1ccc(C(=O)C(Cc2ccccc2)N(C)C)cc1 (stereo unspecified)
0

Recorded test call requested for COC(=O)[C@@H]1C(OC(=O)c2ccccc2)CC2CCC1N2C (stereo partly specified)
0

Recorded test call requested for COC(=O)C1=C(c2ccc(F)cc2OCc2ccccc2)C[C@@H]2CC[C@H]1N2C(=O)NCc1ccc(C(C)(C)C)cc1
0

Recorded test call requested for COC(=O)C1=C(c2cccc(OCc3ccccc3)c2)C[C@@H]2CC[C@H]1N2C(=O)NNCc1ccccc1
0

Recorded test call requested for COc1ccc(CNCCc2ccc3c(c2)OCO3)c(OC)c1OC
0

* * *

- measurement_notes: qHTS screen for small molecules that inhibit ELG1-dependent DNA repair in human embryonic kidney (HEK293T) cells expressing luciferase-tagged ELG1; note: nearly all actives have a fitted effect of over 55% in size
- experimental_setup: HEK293T ELG1-luciferase reporter, luminescence, 16 h, DNA damage induced by 5-fluorouridine; series mostly up to 46.1 µM
Screen size: about 330,000 compounds; about 7,700 (2.3%) were called active. Another 26% or so got no clear call; they are omitted. The call rests on the fitted dose curve; in most records, active means well fitted inhibition curve with a large enough effect; inconclusive means small, poorly fitted or top-dose-only effect, or effect the other way; inactive means flat fitted curve, though single readings scatter. The entries come from a sample that favours actives as a whole.
Your reply should match one of these outcome classes. active, inactive

Answered examples (5):
compound | label_class
COc1ccccc1NC(=O)N1C[C@@H]2C[C@@H](C1)c1cccc(=O)n1C2 | inactive
Cc1cccc(NC(=O)N2CC3CC(C2)c2cccc(=O)n2C3)c1 (stereo not drawn) | inactive
c1ccc(CC2CCCCN2)cc1 (stereo not drawn) | inactive
Cc1ncc(CC(=O)n2cc(C(=O)c3cc(Cl)ccc3O)cn2)s1 | active
CCc1ccc(OCC(=O)N2CCN(CC(=O)Nc3ccccc3Cl)CC2)cc1 | inactive

Recorded test call requested for CC[C@H]1CN2CCc3cc(OC)c(OC)cc3[C@@H]2C[C@@H]1C[C@H]1NCCc2cc(OC)c(OC)cc21
active

Recorded test call requested for COC(=O)C1=C(c2cccc(OCc3ccccc3)c2)C[C@@H]2CC[C@H]1N2C(=O)NCc1ccc(Br)cc1
inactive

Data origin: PubChem BioAssay AID504467
